Quick reference: % Anion (pH = 7.4) of the listed items.
protocol-details: Ionization parameters (pKa, % anion)
Type: physicochemical
experimental-setup: pH = 7.4

{"compound": "CC(=O)C1CCCC1=O (stereo not shown)", "% Anion (pH = 7.4) [%]": 28.5}
{"compound": "COc1cc(/C=C/C(=O)CC(=O)/C=C/c2ccc(O)c(OC)c2)ccc1O", "% Anion (pH = 7.4) [%]": 28.5}
{"compound": "N[C@@H](CCC(=O)N[C@@H](CS)C(=O)NCC(=O)O)C(=O)O", "% Anion (pH = 7.4) [%]": 5.9}
{"compound": "CC(=O)N[C@@H](CS)C(=O)O", "% Anion (pH = 7.4) [%]": 0.8}

###

protocol-details: Ionization parameters (pKa, % anion)
Format: physicochemical
experimental-setup: Table 1; read-out: pKa
Items are presented alongside their recorded pKa.

{"molecule": "N[C@@H](CCC(=O)N[C@@H](CS)C(=O)NCC(=O)O)C(=O)O [GSH, glutathione]", "pKa": 8.6}
{"molecule": "COc1cc(/C=C/C(=O)CC(=O)/C=C/c2ccc(O)c(OC)c2)ccc1O [Curcumin, curcumin]", "pKa": 7.8}
{"molecule": "CC(=O)N[C@@H](CS)C(=O)O [NAC, N-acetylcysteine]", "pKa": 9.5}

###

protocol-details: Ionization parameters (pKa, % anion)
Format: physicochemical
experimental-setup: read-out: pKa

{"compound": "CC(=O)N[C@@H](CS)C(=O)O [NAC, N-acetylcysteine]", "pKa": 9.6}
{"compound": "CC(=O)CC(=O)C(F)(F)F [TFPD, 1,1,1-trifluoro-2,4-pentanedione]", "pKa": 4.7}
